# tested target: Histone-lysine N-methyltransferase EHMT2 (Homo sapiens)
# assay remarks: qHTS Assay for Inhibitors of Histone Lysine Methyltransferase G9a; further: nearly all actives have a fitted effect of over 75% in size; further: potency means the concentration at half of the fitted maximal effect
# experimental parameters: G9a H3K9 monomethylation, AlphaScreen, 2 h; series mostly up to 59 µM
Among all 350,000 compounds or so, about 31,000 (8.9%) were called active. About 15% were inconclusive and are not listed. The full list was thinned out, with actives kept by preference.
observed property: Potency

molecule	Potency
CCC(NC(=O)C1CCCC1)c1ccc(C)cc1 (configuration not stated)	inactive
COc1ccc(NC(=O)c2sc3nc[nH]c(=O)c3c2C)cc1	inactive
Cc1cccc(CC(=O)Nc2cccc(-c3cn4cccnc4n3)c2)c1	inactive
Cc1ccccc1-c1n[nH]c(=S)n1C	10 µM (active)

Reported Potency for Histone-lysine N-methyltransferase EHMT2 (Homo sapiens), given S=C(NCc1ccco1)Nc1ccc2c(c1)OCCO2 ? 44.7 µM (active)

Reported Potency for Histone-lysine N-methyltransferase EHMT2 (Homo sapiens), given Cc1ccc(S(=O)(=O)N(CC(=O)Nc2ccc(Cl)cc2Cl)c2ccccc2C)cc1 ? inactive

Reported Potency for Histone-lysine N-methyltransferase EHMT2 (Homo sapiens), given O=C(O)CSCc1nc2ccccc2s1 ? inactive

Reported Potency for Histone-lysine N-methyltransferase EHMT2 (Homo sapiens), given COc1ccc(C)cc1NC(=O)COCc1cc(-c2cccs2)on1 ? inactive

Reported Potency for Histone-lysine N-methyltransferase EHMT2 (Homo sapiens), given CN(C)CCCn1c(-c2ccc(Cl)cc2)csc1=Nc1ccccc1 ? 12.6 µM (active)

From: PubChem BioAssay AID504332
